So I've got a bunch of molecules here, and I need their IC50 values.
tested on: H460 cells; assay: MTT assay, proliferation of H460 cells; type: cell-based; settings: NCI-H460, 48 h, H460 human lung cancer cells, read-out: In vitro cytotoxicity (IC50) H460
Report as a plain number; the unit µM is understood.

Look up IC50 for this molecule: `COc1ccc(-c2nc(C(=O)NCCCCCNC(=O)c3ccccc3O)cc3c2[nH]c2ccccc23)cc1`
38.5

Look up IC50 for this molecule: `O=C(NCCCCCCNC(=O)c1ccccc1O)c1cc2c(cn1)[nH]c1ccccc12`
21.5

Look up IC50 for this molecule: `COc1ccc(-c2nc(C(=O)NCCCCNC(=O)c3ccccc3C)cc3c2[nH]c2ccccc23)cc1`
38.4

Look up IC50 for this molecule: `Cc1nc(C(=O)NCCCCCCNC(=O)c2ccccc2O)cc2c1[nH]c1ccccc12`
11.4

Look up IC50 for this molecule: `O=C(NCCCNC(=O)c1ccccc1O)c1cc2c(cn1)[nH]c1ccccc12`
25.5
